- targetUnderTest: UniProt Q15910
- protocolDescription: EZH2 assay: rPRC2 with biotinylated oligonucleosome substrates and 3H SAM, FlashPlate scintillation counting, IC50
- Format: biochemical
- experimentalContext: rPRC2, biotinylated oligonucleosome substrates, 3H SAM; read-out: EZH2 IC50
pIC50: −log10 of the molar value.
Recorded pIC50 by entry
measuredProperty: pIC50

structurestring=Cc1cc(C(=O)NC2CC(C)(C)NC(C)(C)C2)ccc1Oc1ccccc1C(C)C targetundertest="UniProt Q15910" measuredproperty=pIC50 result="4.70 to 5.30"
structurestring=CN(C)C(=O)Cn1cc(-c2cccc(Oc3ccc(C(=O)NC4CC(C)(C)NC(C)(C)C4)cc3Cl)c2C#N)cn1 targetundertest="UniProt Q15910" measuredproperty=pIC50 result="> 5.30"
structurestring=CC1(C)CC(NC(=O)c2ccc(/C=C/c3ccccc3)cc2)CC(C)(C)N1 targetundertest="UniProt Q15910" measuredproperty=pIC50 result="4.10 to 4.70"
structurestring=N#Cc1ccccc1Oc1ccc(C(=O)NC2CCSCC2)cc1Cl targetundertest="UniProt Q15910" measuredproperty=pIC50 result="< 4.10"
structurestring=COc1ccncc1-c1ccccc1Oc1ccc(C(=O)NC2CC(C)(C)NC(C)(C)C2)cc1Cl targetundertest="UniProt Q15910" measuredproperty=pIC50 result="< 4.10"
structurestring=CC1(C)CC(NC(=O)c2ccc(COc3cccc(N4CCCNCC4)c3)cc2)CC(C)(C)N1 targetundertest="UniProt Q15910" measuredproperty=pIC50 result="< 4.10"
structurestring=CC1(C)CC(NC(=O)c2ccc(COc3cccc(-c4cn[nH]c4)c3)cc2)CC(C)(C)N1 targetundertest="UniProt Q15910" measuredproperty=pIC50 result="4.70 to 5.30"
structurestring=CN(C)Cc1cccc(Oc2ccc(C(=O)NC3CC(C)(C)NC(C)(C)C3)cc2)c1 targetundertest="UniProt Q15910" measuredproperty=pIC50 result="4.10 to 4.70"

----------
Recorded pIC50 by entry
- targetUnderTest: EZH2 (Homo sapiens)
- protocolDescription: EZH2 assay: rPRC2 with biotinylated oligonucleosome substrates and 3H SAM, FlashPlate scintillation counting, IC50
- Type: biochemical
- experimentalContext: rPRC2, biotinylated oligonucleosome substrates, 3H SAM; read-out: EZH2 IC50
pIC50: −log10 of the molar value.
measuredProperty: pIC50

structurestring=CN1CCC(NC(=O)c2ccc(Oc3cccc(-c4ccnnc4)c3C#N)c(Cl)c2)CC1 measuredproperty=pIC50 result="< 4.10"
structurestring=Cn1cc(-c2cccc(Oc3ccc(C(=O)NC4CC(C)(C)NC(C)(C)C4)cc3Cl)c2C#N)cn1 measuredproperty=pIC50 result="> 5.30"
structurestring=CC1(C)CC(NC(=O)c2ccc(Oc3cccc(N4CCCC4)c3)c(Cl)c2)CC(C)(C)N1 measuredproperty=pIC50 result="4.10 to 4.70"
structurestring=CC1(C)CC(NC(=O)c2ccc(Cc3ccccc3)cc2)CC(C)(C)N1 measuredproperty=pIC50 result="< 4.10"

----------
- targetUnderTest: EZH2 (Homo sapiens, UniProt Q15910)
- Sequence (Q15910 whole entry): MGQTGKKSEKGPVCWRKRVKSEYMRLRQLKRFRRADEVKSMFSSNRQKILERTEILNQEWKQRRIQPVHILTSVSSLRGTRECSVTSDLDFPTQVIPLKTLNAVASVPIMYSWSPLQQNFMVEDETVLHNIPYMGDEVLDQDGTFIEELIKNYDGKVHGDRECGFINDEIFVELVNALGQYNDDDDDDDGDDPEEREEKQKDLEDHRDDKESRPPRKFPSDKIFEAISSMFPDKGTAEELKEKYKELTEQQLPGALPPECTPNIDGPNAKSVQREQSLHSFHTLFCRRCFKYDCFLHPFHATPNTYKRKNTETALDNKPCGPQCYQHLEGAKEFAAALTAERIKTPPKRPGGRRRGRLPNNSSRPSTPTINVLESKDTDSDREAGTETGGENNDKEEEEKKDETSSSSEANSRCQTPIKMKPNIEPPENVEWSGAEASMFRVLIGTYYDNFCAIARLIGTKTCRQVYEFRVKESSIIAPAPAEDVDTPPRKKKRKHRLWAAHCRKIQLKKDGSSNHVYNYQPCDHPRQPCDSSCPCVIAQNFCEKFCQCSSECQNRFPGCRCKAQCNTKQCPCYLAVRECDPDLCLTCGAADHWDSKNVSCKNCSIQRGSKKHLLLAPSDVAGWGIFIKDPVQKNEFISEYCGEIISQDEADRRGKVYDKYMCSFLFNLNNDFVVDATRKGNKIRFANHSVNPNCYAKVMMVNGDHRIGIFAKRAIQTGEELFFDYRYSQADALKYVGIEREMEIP
- Sequence (O75530 whole entry partner): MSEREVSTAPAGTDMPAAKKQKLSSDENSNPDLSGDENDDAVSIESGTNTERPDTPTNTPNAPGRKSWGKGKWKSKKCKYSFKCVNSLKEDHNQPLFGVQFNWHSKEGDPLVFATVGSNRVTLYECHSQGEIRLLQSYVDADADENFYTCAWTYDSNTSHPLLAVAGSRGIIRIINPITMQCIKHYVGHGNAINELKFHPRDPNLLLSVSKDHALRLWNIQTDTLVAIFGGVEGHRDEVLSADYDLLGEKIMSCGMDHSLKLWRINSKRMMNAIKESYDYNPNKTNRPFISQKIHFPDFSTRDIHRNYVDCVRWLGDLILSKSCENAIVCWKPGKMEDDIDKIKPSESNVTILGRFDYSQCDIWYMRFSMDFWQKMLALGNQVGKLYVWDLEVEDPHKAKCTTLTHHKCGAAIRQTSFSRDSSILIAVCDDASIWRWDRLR
- Sequence (Q15022 whole entry partner): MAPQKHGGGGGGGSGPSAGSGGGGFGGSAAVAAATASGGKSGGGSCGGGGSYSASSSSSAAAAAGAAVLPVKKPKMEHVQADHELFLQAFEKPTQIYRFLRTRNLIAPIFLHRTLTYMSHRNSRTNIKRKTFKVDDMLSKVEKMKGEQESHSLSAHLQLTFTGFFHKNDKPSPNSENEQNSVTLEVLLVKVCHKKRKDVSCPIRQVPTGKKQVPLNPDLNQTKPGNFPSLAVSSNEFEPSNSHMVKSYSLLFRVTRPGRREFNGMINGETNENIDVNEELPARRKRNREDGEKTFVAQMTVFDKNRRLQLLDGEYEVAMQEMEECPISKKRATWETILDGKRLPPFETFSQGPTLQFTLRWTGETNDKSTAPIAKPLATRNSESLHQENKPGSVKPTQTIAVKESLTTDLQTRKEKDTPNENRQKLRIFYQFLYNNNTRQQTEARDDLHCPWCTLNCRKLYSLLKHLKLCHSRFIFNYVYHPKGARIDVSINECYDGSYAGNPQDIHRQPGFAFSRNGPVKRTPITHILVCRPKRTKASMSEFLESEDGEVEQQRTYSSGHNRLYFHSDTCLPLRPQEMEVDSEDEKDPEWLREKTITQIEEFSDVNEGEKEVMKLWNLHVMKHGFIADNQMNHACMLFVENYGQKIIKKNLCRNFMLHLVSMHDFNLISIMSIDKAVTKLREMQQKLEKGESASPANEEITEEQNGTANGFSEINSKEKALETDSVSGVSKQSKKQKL
- protocolDescription: EZH2 assay: rPRC2 with biotinylated oligonucleosome substrates and 3H SAM, FlashPlate scintillation counting, IC50
- Format: biochemical
- experimentalContext: rPRC2, biotinylated oligonucleosome substrates, 3H SAM; read-out: EZH2 IC50
measuredProperty: IC50

structurestring=CC1(C)CC(NC(=O)c2ccc(Oc3ccc(O)cc3)cc2)CC(C)(C)N1 result="20 to 80 µM"
structurestring=CC1(C)CC(NC(=O)c2ccc(COc3cccc(-c4ccc(N)cc4)c3)cc2)CC(C)(C)N1 result="20 to 80 µM"
structurestring=CC1(C)CC(NC(=O)c2ccc(Oc3ccccc3)cc2Cl)CC(C)(C)N1 result="> 80 µM"
structurestring=CC1(C)CC(NC(=O)c2ccc(Oc3cccc(CN4CCOCC4)c3)cc2)CC(C)(C)N1 result="> 80 µM"
structurestring=CN(C)CCNC(=O)c1ccc(Oc2ccccc2)cc1 result="> 80 µM"
structurestring=CN(Cc1ccccc1)C(=O)c1ccc(Oc2ccccc2)cc1 result="> 80 µM"
structurestring=Cc1cc(C)cc(OCc2cccc(C(=O)NC3CC(C)(C)NC(C)(C)C3)c2)c1 result="> 80 µM"
structurestring=CC1(C)CC(NC(=O)c2ccc(Oc3ccccc3)c(O)c2)CC(C)(C)N1 result="20 to 80 µM"

Source of measurements: patent US20130310379A1
